- EXPERIMENTAL PROTOCOL: PK of compound of Formula (Ia) after single subcutaneous dose of solution formulations in beagle dogs
- Assay type: in vivo
- CONDITION INFO: male, beagle, dog, plasma, sc, 12 mg/kg, beagle dogs, SC 12 mg/kg, 400 mg/mL solution Z (3.13% poloxamer 188), 24.0 h, Mean n = 3
PROPERTY NAME: concentration at 24 h (nM)
Response body: numeric value in nM, unit text excluded.

Quick one: concentration at 24 h for CC(C)(C#Cc1ccc(-c2ccc(Cl)c3c(NS(C)(=O)=O)nn(CC(F)(F)F)c23)c([C@H](Cc2cc(F)cc(F)c2)NC(=O)Cn2nc(C(F)(F)F)c3c2C(F)(F)[C@@H]2C[C@H]32)n1)S(C)(=O)=O [compound of Formula (Ia)] ? 80.5
